Target: human GPR142 (Homo sapiens, UniProt Q7Z601)
Construct: expressed in transfected cells
Sequence (Q7Z601 1-374 isoform Q7Z601-2): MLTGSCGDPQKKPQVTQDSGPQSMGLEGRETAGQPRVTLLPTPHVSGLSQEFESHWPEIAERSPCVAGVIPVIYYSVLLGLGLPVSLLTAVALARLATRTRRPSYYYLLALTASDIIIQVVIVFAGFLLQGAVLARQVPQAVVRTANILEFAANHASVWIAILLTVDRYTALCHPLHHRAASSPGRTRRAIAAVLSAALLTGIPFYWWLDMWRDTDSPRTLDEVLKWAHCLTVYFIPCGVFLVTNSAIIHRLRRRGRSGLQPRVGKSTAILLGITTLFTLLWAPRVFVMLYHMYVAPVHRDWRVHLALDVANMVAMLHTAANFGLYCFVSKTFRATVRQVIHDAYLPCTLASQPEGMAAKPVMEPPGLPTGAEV
Assay: IP-1 accumulation assay in HEK293 cells stably expressing human GPR142
Type: cell-based
Details: IP-1 accumulation, 1 hour, 0.17 nM to 30 μM; read-out: HEK293-hGPR142 EC50
Readout type: pEC50
Reminder that pEC50 is minus the log10 of a molar concentration.

Entry CCCc1c(C(=O)NCc2cncn2C)cnn1-c1ncc(C)c(-c2cccs2)n1 [Compound A] needs its pEC50 filled in; supply it.
8.15
